Please provide measured log10 of t0.5 for the entries that follow.
Test system: esterase from porcine liver (PLE)
Assay name: Stability test in plasma (80%, 37 °C) with porcine liver esterase
Type: in vitro ADME
Condition: cE 2.0 U, 1.10·10^−8 M, plasma 80%
Transform log10 | Measure t0.5 | Unit min

Some entries whose results are on file:
>  <Compound>
CC(C)C(=O)OCCOCn1cnc2c(=O)[nH]c(N)nc21 [iBut-ACV]

>  <System tested>
esterase from porcine liver (PLE)

>  <Value observed>
0.46

$$$$
>  <Compound>
CCOC(=O)OCCOCn1cnc2c(=O)[nH]c(N)nc21 [Etc-ACV]

>  <System tested>
esterase from porcine liver (PLE)

>  <Value observed>
1.25

$$$$
>  <Compound>
COc1ccc(-c2cn3c(=O)c4ncn(COCCO)c4nc3[nH]2)cc1 [6-(4-MeOPh)-TACV]

>  <System tested>
esterase from porcine liver (PLE)

>  <Value observed>
3.19

$$$$
>  <Compound>
CC(=O)OCCOCn1cnc2c(=O)[nH]c(N)nc21 [Ac-ACV]

>  <System tested>
esterase from porcine liver (PLE)

>  <Value observed>
2.42

$$$$

Then this compound:
Kindly note the recorded log10 of t0.5 for CC(C)(C)C(=O)OCCOCn1cnc2c(=O)[nH]c(N)nc21 [Piv-ACV] , which is 1.39
